fMet-Leu-Phe receptor (Homo sapiens, UniProt P21462): recorded pKi for assorted molecules
Sequence (P21462 whole entry): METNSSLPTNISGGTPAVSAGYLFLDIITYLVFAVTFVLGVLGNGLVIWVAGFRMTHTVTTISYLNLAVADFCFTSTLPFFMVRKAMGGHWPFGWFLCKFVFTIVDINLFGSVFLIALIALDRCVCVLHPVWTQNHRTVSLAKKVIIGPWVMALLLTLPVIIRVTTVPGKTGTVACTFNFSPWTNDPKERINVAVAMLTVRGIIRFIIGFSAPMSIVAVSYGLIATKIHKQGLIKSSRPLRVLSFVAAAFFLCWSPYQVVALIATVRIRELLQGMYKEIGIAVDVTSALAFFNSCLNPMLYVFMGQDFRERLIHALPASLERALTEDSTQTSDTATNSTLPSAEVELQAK
pKi: −log10 of the molar value.

[
  {
    "molecule": "CCC(=O)Nc1cc(-c2cn3cccnc3n2)ccc1OC",
    "property": "pKi",
    "result": "< 4.31"
  },
  {
    "molecule": "COc1ccc(-c2cn3cccnc3n2)cc1NC(=O)C(C)C",
    "property": "pKi",
    "result": "< 4.33"
  },
  {
    "molecule": "COc1ccc(-c2cn3cccnc3n2)cc1NC(=O)C1CCCC1 [MLS000045945]",
    "property": "pKi",
    "result": "< 4.36"
  },
  {
    "molecule": "CCOC(=O)N1CCN(c2nc(-c3ccc(OC)c(OC)c3)cc(C(F)(F)F)n2)CC1",
    "property": "pKi",
    "result": "< 4.48"
  },
  {
    "molecule": "COc1ccc(-c2cn3cccnc3n2)cc1NC(=O)C1CC1 [MLS000045944]",
    "property": "pKi",
    "result": "< 4.33"
  }
]

Here's the next entry for you.
Please report pKi for the following molecule: COc1ccc(-c2cc(C(F)(F)F)nc(N3CCN(Cc4ccccc4)CC3)n2)cc1OC < 4.50
